inhibition overview
Molecular target: Tyrosine-protein kinase ABL2 (Homo sapiens) (UniProt P42684);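 further: values are mean percent inhibition of ARG (ABL2), measured within the GSK PKIS set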
Sequence (P42684 whole entry): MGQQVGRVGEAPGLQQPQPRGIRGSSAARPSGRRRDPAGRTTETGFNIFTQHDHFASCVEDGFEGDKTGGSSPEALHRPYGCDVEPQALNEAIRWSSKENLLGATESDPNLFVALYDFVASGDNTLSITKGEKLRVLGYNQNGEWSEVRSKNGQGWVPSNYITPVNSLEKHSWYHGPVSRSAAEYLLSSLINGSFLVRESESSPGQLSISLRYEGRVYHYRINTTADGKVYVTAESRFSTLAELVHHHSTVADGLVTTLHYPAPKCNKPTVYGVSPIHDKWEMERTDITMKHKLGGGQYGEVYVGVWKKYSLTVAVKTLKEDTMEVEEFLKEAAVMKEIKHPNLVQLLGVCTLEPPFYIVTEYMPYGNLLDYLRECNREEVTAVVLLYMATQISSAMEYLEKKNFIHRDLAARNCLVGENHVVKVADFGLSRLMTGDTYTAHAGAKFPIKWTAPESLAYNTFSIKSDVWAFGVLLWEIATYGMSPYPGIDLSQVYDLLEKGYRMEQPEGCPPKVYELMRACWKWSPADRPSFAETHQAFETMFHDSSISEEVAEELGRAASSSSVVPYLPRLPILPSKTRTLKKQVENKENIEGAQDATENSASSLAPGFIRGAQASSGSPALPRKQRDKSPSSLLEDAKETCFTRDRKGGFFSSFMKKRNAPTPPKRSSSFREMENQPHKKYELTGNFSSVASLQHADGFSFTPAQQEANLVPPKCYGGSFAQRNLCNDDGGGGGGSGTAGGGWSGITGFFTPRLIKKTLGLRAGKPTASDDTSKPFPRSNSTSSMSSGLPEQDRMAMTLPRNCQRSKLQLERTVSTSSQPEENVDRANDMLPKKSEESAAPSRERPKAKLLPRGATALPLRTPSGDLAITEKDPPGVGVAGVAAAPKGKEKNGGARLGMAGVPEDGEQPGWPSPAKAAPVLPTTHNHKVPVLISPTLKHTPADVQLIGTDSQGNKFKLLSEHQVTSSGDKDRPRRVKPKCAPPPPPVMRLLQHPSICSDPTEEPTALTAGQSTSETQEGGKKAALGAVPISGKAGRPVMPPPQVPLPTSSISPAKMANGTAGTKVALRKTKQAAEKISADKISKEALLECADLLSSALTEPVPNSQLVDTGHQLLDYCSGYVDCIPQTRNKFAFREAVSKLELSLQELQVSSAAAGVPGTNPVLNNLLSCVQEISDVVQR
Settings: at 0.1 µM
Measurement type: inhibition (%)

Molecule: COc1cccc(-n2ncc3c(N/N=C/c4cccc(F)c4)ncnc32)c1
Measurement type: inhibition
Reported result: 3.52
--
Molecule: COc1ccccc1Nc1ncc(-c2ccccc2)o1
Measurement type: inhibition
Reported result: 7.08
--
Molecule: CC(=O)Nc1cccc(C#Cc2cncnc2Nc2ccc(OCc3cccc(F)c3)c(Cl)c2)n1
Measurement type: inhibition
Reported result: 0.55
--
Molecule: Nc1ncnc2occ(-c3ccc(NC(=O)Nc4cc(C(F)(F)F)cc(C(F)(F)F)c4)cc3)c12
Measurement type: inhibition
Reported result: 6.22

====

Molecular target: Vascular endothelial growth factor receptor 3 (Homo sapiens) (UniProt P35916);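 further: mean FLT4 inhibition, averaged across replicates, from the GSK PKIS kinase inhibitor screen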
Sequence (P35916 whole entry): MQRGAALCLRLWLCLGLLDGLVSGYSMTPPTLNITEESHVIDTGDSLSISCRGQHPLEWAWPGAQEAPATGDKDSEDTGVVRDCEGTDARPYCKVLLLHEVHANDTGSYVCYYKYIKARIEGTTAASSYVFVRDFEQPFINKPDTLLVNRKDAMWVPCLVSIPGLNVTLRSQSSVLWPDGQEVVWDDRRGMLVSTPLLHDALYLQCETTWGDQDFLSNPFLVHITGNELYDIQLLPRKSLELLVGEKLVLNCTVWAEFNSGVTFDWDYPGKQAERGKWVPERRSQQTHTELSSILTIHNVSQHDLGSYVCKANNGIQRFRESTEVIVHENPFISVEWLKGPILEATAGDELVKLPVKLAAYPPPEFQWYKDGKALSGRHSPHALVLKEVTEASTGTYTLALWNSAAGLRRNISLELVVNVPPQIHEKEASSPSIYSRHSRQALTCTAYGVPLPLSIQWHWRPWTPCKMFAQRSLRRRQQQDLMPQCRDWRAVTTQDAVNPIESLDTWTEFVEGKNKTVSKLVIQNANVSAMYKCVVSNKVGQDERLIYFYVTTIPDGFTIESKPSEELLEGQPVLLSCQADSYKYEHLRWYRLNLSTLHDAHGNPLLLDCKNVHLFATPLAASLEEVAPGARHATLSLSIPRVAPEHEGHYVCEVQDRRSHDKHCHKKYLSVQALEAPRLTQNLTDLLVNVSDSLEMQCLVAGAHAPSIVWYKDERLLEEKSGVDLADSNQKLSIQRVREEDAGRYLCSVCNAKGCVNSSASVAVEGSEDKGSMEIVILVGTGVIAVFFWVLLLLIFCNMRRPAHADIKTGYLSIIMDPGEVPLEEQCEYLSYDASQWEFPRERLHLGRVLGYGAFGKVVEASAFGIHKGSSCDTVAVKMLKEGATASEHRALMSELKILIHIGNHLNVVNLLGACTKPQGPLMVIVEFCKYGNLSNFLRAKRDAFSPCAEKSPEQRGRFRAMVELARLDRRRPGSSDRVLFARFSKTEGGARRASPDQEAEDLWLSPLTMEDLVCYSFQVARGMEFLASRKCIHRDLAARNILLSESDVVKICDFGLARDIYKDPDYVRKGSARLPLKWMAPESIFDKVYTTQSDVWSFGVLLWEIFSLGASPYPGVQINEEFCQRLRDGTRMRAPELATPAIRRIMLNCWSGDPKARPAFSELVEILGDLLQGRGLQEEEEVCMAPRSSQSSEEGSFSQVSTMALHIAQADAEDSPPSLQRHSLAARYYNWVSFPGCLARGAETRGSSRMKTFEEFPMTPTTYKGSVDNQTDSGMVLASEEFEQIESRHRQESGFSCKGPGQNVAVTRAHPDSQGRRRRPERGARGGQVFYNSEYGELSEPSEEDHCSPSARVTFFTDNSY
Conditions: at 1 µM

Molecule: Fc1cccc(COc2ccc(Nc3ncnc4sc(-c5cccs5)cc34)cc2Cl)c1
Units text: %
inhibition: 3.65

Molecule: COc1ccc2cc(-c3c(-c4ccncc4)nc(-c4ccc([S+](C)[O-])cc4)n3C)ccc2c1 (stereo not given)
Units text: %
inhibition: 0.4

Molecule: Nc1nc(-c2ccc3c(c2)C(=Cc2cc(Br)c(O)c(Br)c2)C(=O)N3)cs1
Units text: %
inhibition: 6.47

Molecule: O=C1NC(=O)C(N2CCc3ccccc32)=C1c1ccc(Cl)cc1
Units text: %
inhibition: 0.97

Molecule: COc1ccc(COc2ccc(Cc3cnc(N)nc3N)cc2OC)cc1
Units text: %
inhibition: -0.86

Molecule: COc1cc(C=NNc2ncnc3c2cnn3-c2ccccc2)ccc1O
Units text: %
inhibition: 24.4

Molecule: O=C1NC(=O)C(c2ccc(Cl)cc2)=C1Nc1ccc(Cl)c(C(=O)O)c1
Units text: %
inhibition: 6.6

Molecule: COc1ccccc1Nc1ncc(-c2ccccc2)o1
Units text: %
inhibition: 9.85

Molecule: N#Cc1c(NC(=O)c2cccc3ccccc23)sc2c1CCCC2
Units text: %
inhibition: -3.88

Molecule: COc1cc2ncn(-c3cc(O[C@@H](C)c4ccccc4Cl)c(C(N)=O)s3)c2cc1OC
Units text: %
inhibition: 67.6

Molecule: O=C1Nc2ccc(C(=O)c3ccco3)cc2C1=Cc1cc(Cl)c(O)c(Cl)c1
Units text: %
inhibition: 12.3

Molecule: CCn1c(-c2nonc2N)nc2cncc(C(=O)N3CC[C@H](N)C3)c21
Units text: %
inhibition: 7.41

Molecule: Nc1ncnc2occ(-c3ccc(NC(=O)Nc4cccc(C(F)(F)F)c4)cc3)c12
Units text: %
inhibition: 99.6

Molecule: O=C1NC(=O)C(c2cccc(Cl)c2)=C1Nc1ccc(O)c(Cl)c1
Units text: %
inhibition: 13.3

Molecule: Cc1cccc(-c2n[nH]cc2-c2ccc3ncccc3n2)n1
Units text: %
inhibition: 39.4

====

Target: Serine/threonine-protein kinase Chk1 (Homo sapiens);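 further: reported figure is the mean percent inhibition of CHEK1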
Sequence (whole entry): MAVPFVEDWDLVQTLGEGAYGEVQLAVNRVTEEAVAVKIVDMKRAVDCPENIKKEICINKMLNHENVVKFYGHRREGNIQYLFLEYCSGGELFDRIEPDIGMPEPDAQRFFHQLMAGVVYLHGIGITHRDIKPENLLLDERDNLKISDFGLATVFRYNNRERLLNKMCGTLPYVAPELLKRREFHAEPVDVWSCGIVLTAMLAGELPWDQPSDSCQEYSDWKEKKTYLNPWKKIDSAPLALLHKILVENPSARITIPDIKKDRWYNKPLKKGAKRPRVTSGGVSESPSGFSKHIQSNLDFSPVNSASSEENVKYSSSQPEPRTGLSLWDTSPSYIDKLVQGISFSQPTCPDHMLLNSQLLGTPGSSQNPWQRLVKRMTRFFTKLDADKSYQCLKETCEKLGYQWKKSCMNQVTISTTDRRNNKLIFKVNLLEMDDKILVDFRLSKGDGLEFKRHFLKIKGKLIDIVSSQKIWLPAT
Settings: at 0.1 µM
inhibition overview

Molecule: COc1cc2ncn(-c3cc(OCc4ccccc4C(F)(F)F)c(C(N)=O)s3)c2cc1OC
inhibition, %: 2.54
//
Molecule: CN1CCC(C(=O)Nc2n[nH]c3nnc(-c4ccccc4)cc23)CC1
inhibition, %: -2.79
//
Molecule: CC(=O)Nc1cccc(C#Cc2cncnc2Nc2ccc(OCc3cccc(F)c3)c(Cl)c2)n1
inhibition, %: 7.14
//
Molecule: Cn1cc(C=C2C(=O)Nc3cccnc32)c2ccccc21
inhibition, %: 0.66
//
Molecule: Cc1nnc(-c2ccc(C)c(-c3ccc(C(=O)Nc4cccc(C#N)c4)cc3)c2)o1
inhibition, %: 0.73
//
Molecule: CS(=O)(=O)Nc1ccc(N/C=C2\C(=O)Nc3ccccc32)cc1
inhibition, %: -0.22
